tested on: ryegrass, Italian (Italian ryegrass, Lolium multiflorum); test: Test A postemergence; assay type: in vivo; details: Lolium multiflorum, post-emergence, 240 h, 125 g ai/ha, postemergence, visual injury rating after approximately 10 d; read-out: Ryegrass, Italian plant response rating (0 to 100 scale, 0 no effect, 100 complete control)
In this section, each of the molecules is paired with its reported pest or weed control at 125 g/ha.
Your answer should be a plain number; it is taken to be in %.

Some molecules with known pest or weed control at 125 g/ha results, for comparison:
# Structure Notation, Unit Spec, Reported
records = [
    ("CN1CC[C@H](c2ccc3c(c2)OC(F)(F)O3)[C@@H](C(=O)Nc2ccc(F)c(F)c2F)C1=O", "%", 20),
    ("CN1C[C@H](c2cccc(COC(F)F)c2)[C@@H](C(=O)Nc2ccccc2S(C)(=O)=O)C1=O", "%", 20),
    ("CCOc1ccc([C@H]2CNC(=O)[C@@H]2C(=O)Nc2ccccc2F)cc1", "%", 0),
    ("CN1CC[C@H](c2cccc(OC(F)(F)F)c2)[C@@H](C(=O)Nc2ccc(F)c(F)c2F)C1=O", "%", 0),
    ("CC(C)(C)c1ccc([C@H]2CNC(=O)[C@@H]2C(=O)Nc2cccc(F)c2F)cc1", "%", 0),
]

input: State its pest or weed control at 125 g/ha on ryegrass, Italian (Italian ryegrass, Lolium multiflorum): CN1CC[C@H](c2ccc3c(c2)OC(F)(F)O3)[C@@H](C(=O)Nc2cccc(F)c2F)C1=O
output: 30

input: Moving on to O=C1NC[C@H](c2ccc3c(c2)CCCO3)[C@H]1C(=O)Nc1ccccc1F
output: 0

input: Moving on to O=C1NC[C@H](c2cc(F)c(C(F)(F)F)c(F)c2)[C@H]1C(=O)Nc1ccc(F)cc1F
output: 0

input: Moving on to CSc1ccccc1NC(=O)[C@H]1C(=O)N(C)CC[C@@H]1c1cccc(OC(F)(F)F)c1
output: 0

input: Moving on to Cc1c(F)ccc([C@H]2CN(C)C(=O)[C@@H]2C(=O)Nc2ccccc2S(C)(=O)=O)c1F
output: 20

input: Moving on to CN1CC[C@H](c2cccc(OC(F)(F)F)c2)[C@@H](C(=O)Nc2ccccc2C(F)(F)F)C1=O
output: 0

---

system: ragweed (common ragweed, Ambrosia elatior); experiment: Test A preemergence; assay type: in vivo; conditions: Ambrosia artemisiifolia, pre-emergence, 240 h, 125 g ai/ha, preemergence; 0 to 100 scale where 0 is no effect and 100 is complete control; read-out: Ragweed plant response rating
In this section, each of the compounds is paired with its reported pest or weed control at 125 g/ha.
Your answer should be a plain number; it is taken to be in %.

Some compounds with known pest or weed control at 125 g/ha results, for comparison:
# Structure Notation, pest or weed control at 125 g/ha, %
measured = [
    ("COc1cc(C(F)(F)F)ccc1[C@H]1CN(C)C(=O)[C@@H]1C(=O)Nc1ccccc1F", 0),
    ("COc1c(F)ccc([C@H]2CN(C)C(=O)[C@@H]2C(=O)Nc2cccc(F)c2F)c1Cl", 40),
    ("COc1cc([C@H]2CN(C)C(=O)[C@@H]2C(=O)Nc2ccccc2SC)cc(C(F)(F)F)c1", 0),
]

Kindly review the next compound as well.
input: State its pest or weed control at 125 g/ha on ragweed (common ragweed, Ambrosia elatior): COc1c(F)ccc([C@H]2CN(C)C(=O)[C@@H]2C(=O)Nc2ccc(F)cc2F)c1Cl
output: 0
